Experiment: Quantitative High-Throughput drug screen in 47 multiple myeloma cell lines against the NCATS MIPE library collection: JJN3_DSMZ cell viability assay (AID 1918966; also: nearly all actives have a fitted effect of over 50% in size)
Conditions: JJN3 myeloma cells viability, CellTiter-Glo ATP, 48 h; series mostly up to 45.8 µM
Records with an inconclusive call do not appear. The source made the active and inactive calls. Calls follow the shape of the dose curve; as a rule, active = well fitted cell-killing curve with a large enough effect; inconclusive = small, poorly fitted or top-dose-only effect, or effect the other way; inactive = no such curve, though single readings can be large or run the other way.
Just give me one of these, please: yes = active, no = inactive

QUERY: What outcome does the record of this test show for "Cc1c(C(=O)NN2CCCCC2)nn(-c2ccc(Cl)cc2Cl)c1-c1ccc(Cl)cc1" ?
RESULT: yes

QUERY: What outcome does the record of this test show for O=C(NCC1CCCCN1)c1cc(OCC(F)(F)F)ccc1OCC(F)(F)F (centres undefined) ?
RESULT: no

QUERY: What outcome does the record of this test show for "Cc1ccc(C)c(OCCCC(C)(C)C(=O)O)c1" ?
RESULT: no

QUERY: What outcome does the record of this test show for "Nc1nc(N)c(N=O)c(OCC2CCCCC2)n1" ?
RESULT: yes

QUERY: What outcome does the record of this test show for CCCCC(CC)COC(=O)C(C#N)=C(c1ccccc1)c1ccccc1 (centres undefined) ?
RESULT: no

QUERY: What outcome does the record of this test show for "CCCCCCCCCCCCCCCCCCCCCCO" ?
RESULT: no

QUERY: What outcome does the record of this test show for "O=C(NCCO[N+](=O)[O-])c1cccnc1" ?
RESULT: no

QUERY: What outcome does the record of this test show for "CN(C)C(=O)[C@H](O)[C@H](Cc1ccccc1)NC(=O)c1cc2cc(Cl)ccc2[nH]1" ?
RESULT: yes

QUERY: What outcome does the record of this test show for "Cc1nc(Nc2ncc(C(=O)Nc3c(C)cccc3Cl)s2)cc(N2CCN(CCO)CC2)n1" ?
RESULT: yes

QUERY: What outcome does the record of this test show for "CC[C@]1(O)C[C@H]2CN(CCc3c([nH]c4ccccc34)[C@@](C(=O)OC)(c3cc4c(cc3OC)N(C=O)[C@H]3[C@@](O)(C(=O)OC)[C@H](OC(C)=O)[C@]5(CC)C=CCN6CC[C@]43[C@@H]65)C2)C1" ?
RESULT: yes

QUERY: What outcome does the record of this test show for COc1cc2nc(N3CCN(C(=O)C4CCCO4)CC3)nc(N)c2cc1OC (centres undefined) ?
RESULT: no

QUERY: What outcome does the record of this test show for O=C(NC(Cc1cc(=O)[nH]c2ccccc12)C(=O)O)c1ccc(Cl)cc1 (centres undefined) ?
RESULT: yes

QUERY: What outcome does the record of this test show for "O=Nc1c(-c2c(O)[nH]c3cc(Br)ccc23)[nH]c2ccccc12" ?
RESULT: yes

QUERY: What outcome does the record of this test show for "COc1cc(OC)c(C(=O)CCCN2CCCC2)c(OC)c1" ?
RESULT: yes

---

Molecular target: ATP-dependent 6-phosphofructokinase (Trypanosoma brucei brucei) (UniProt O15648)
Sequence (O15648 whole entry, looked up): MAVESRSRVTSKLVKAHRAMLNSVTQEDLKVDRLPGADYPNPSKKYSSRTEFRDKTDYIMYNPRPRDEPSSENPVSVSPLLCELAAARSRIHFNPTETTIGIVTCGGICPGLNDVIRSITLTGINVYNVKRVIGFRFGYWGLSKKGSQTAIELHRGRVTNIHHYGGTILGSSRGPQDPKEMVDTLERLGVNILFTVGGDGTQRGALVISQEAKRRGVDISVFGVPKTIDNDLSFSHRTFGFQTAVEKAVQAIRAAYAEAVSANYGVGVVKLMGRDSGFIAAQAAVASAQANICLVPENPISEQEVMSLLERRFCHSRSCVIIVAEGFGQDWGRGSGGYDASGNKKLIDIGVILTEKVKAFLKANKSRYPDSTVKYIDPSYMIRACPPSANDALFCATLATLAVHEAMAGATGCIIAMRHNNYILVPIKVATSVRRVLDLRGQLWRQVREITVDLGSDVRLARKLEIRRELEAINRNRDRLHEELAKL
Test: qHTS Assay to Find Inhibitors of T. brucei phosphofructokinase: hit validation (AID 492961);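 also: luminescence reports ADP formed as PFK phosphorylates fructose-6-phosphate with ATP; % is scaled to controls: 0 for no effect and ±100 for the full control effect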
Conditions: T. brucei PFK, ADP-Glo luminescence; series mostly up to 51.4 µM
Inconclusive results are not listed. Active and inactive are the calls of the source. The call rests on the fitted dose curve; in most records, active means well fitted inhibition curve with a large enough effect; inconclusive means small, poorly fitted or top-dose-only effect, or effect the other way; inactive means flat fitted curve, though single readings scatter.
Measured Parameter: outcome

{"columns": ["Compound", "Measured Parameter", "Val"],
 "data": [
  ["CC1(C)CCC(C)(C)c2cc(NC(=O)c3ccc(C(=O)O)cc3)ccc21", "outcome", "inactive"],
  ["O=C(CS(=O)Cc1ccco1)NCC=CCOc1cc(CN2CCCCC2)ccn1 (stereo not drawn)", "outcome", "inactive"],
  ["CCN(CC)CCOc1ccc(Cc2ccccc2)cc1", "outcome", "inactive"]
]}

---

For each of the compounds below, state its max response.
Assay: qHTS Assay for Lipid Storage Modulators (AID 1519)
Settings: Drosophila S3 cells, BODIPY lipid droplet/cell ratio, laser cytometry; measured here: lipid channel max response; cells loaded with oleic acid
Results filed as inconclusive are left out.
// note: answer is a bare numeric in %

QUERY: Bench note: what max response did "CN(C)CCc1c[nH]c2ccc(Cn3cncn3)cc12" show?
RESULT: 22

QUERY: Bench note: what max response did "CCCCc1ccc2nc(NC(=O)OC)[nH]c2c1" show?
RESULT: -2.48

QUERY: Bench note: what max response did O=C1c2c(O)cc(O)cc2OC(c2ccc(O)c(O)c2)C1O (configuration not stated) show?
RESULT: 36.5

QUERY: Bench note: what max response did "c1ccc2[nH]c(-c3cscn3)nc2c1" show?
RESULT: -10.4

QUERY: Bench note: what max response did "Oc1ccc(OCc2ccccc2)cc1" show?
RESULT: -20.9

QUERY: Bench note: what max response did "O=c1oc2cc(O)ccc2s1" show?
RESULT: 23.2

QUERY: Bench note: what max response did "O=C(O)c1cn(-c2ccc(F)cc2)c2cc(N3CCNCC3)c(F)cc2c1=O" show?
RESULT: 20.1

---

Assay: Quantitative high throughput screen for delayed death inhibitors of the malarial parasite plastid, 48 hour incubation (AID 488752); also: nearly all actives have a fitted effect of over 65% in size
Conditions: Plasmodium falciparum growth; series mostly up to 28.7 µM
Records with an inconclusive call do not appear. The source made the active and inactive calls. Calls follow the shape of the dose curve; as a rule, active = well fitted inhibition curve with a large enough effect; inconclusive = small, poorly fitted or top-dose-only effect, or effect the other way; inactive = flat fitted curve, though single readings scatter.
Just give me one of these, please: active, inactive

QUERY: What outcome does the record of this test show for "NCCCCNCCCN" ?
RESULT: inactive

QUERY: What outcome does the record of this test show for OC(CN1CCN(c2cccc(Cl)c2)CC1)C(c1ccccc1)c1ccccc1 (stereo not given) ?
RESULT: inactive

QUERY: What outcome does the record of this test show for "Nc1nc(OCc2ccccc2)c2[nH]cnc2n1" ?
RESULT: inactive

QUERY: What outcome does the record of this test show for CC(=O)O[C@H]1C(=O)[C@@]2(C)C([C@H](OC(=O)c3ccccc3)[C@]3(O)C[C@H](OC(=O)[C@H](O)[C@@H](NC(=O)c4ccccc4)c4ccccc4)C(C)=C1C3(C)C)[C@]1(OC(C)=O)CO[C@@H]1C[C@@H]2O (stereo not given in full) ?
RESULT: active

QUERY: What outcome does the record of this test show for O=C(NCC1CCCCN1)c1cc(OCC(F)(F)F)ccc1OCC(F)(F)F (stereo not given) ?
RESULT: inactive

QUERY: What outcome does the record of this test show for "O=c1c(O)c(-c2cc(O)c(O)c(O)c2)oc2cc(O)cc(O)c12" ?
RESULT: inactive

QUERY: What outcome does the record of this test show for CN(C)CCCC1(c2ccc(F)cc2)OCc2cc(C#N)ccc21 (stereo not given) ?
RESULT: inactive

QUERY: What outcome does the record of this test show for "NC(=NCc1ccccc1)NC(=O)c1nc(Cl)c(N)nc1N" ?
RESULT: active

QUERY: What outcome does the record of this test show for "O=C(O)c1cccnc1Nc1cccc(C(F)(F)F)c1" ?
RESULT: inactive

QUERY: What outcome does the record of this test show for "O=c1c(O)c(-c2ccc(O)cc2O)oc2cc(O)cc(O)c12" ?
RESULT: inactive

---

Target: Muscarinic acetylcholine receptor M1 (Rattus norvegicus) (UniProt P08482)
Sequence (P08482 whole entry, looked up): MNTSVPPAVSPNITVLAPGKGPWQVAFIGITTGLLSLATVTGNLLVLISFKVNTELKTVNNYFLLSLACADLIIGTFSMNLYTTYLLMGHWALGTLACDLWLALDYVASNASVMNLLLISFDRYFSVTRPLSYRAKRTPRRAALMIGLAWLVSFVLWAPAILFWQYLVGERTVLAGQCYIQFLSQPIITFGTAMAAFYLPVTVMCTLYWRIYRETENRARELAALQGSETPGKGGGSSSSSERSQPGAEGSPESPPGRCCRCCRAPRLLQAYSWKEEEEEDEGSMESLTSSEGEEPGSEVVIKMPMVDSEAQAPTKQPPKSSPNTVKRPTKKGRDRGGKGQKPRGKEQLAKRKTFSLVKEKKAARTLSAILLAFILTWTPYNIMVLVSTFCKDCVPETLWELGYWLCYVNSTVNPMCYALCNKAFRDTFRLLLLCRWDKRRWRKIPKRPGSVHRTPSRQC
Assay: qHTS Assay for Antagonists of Acetylcholine Muscarinic M1 Receptor: Measurement of IP-One Response (AID 944); also: nearly all actives have a fitted effect of over 75% in size
Conditions: CHO-M1 cells, IP-One HTRF, antagonist mode; series mostly up to 46.1 µM
Records with an inconclusive call do not appear. Calls of active or inactive are those of the source. Calls come from the whole dose curve; as a rule, active = well fitted inhibition curve with a large enough effect; inconclusive = small, poorly fitted or top-dose-only effect; inactive = no such curve, though single readings can be large or run the other way.
Just give me one of these, please: 1 (yes) = active, 0 (no) = inactive

QUERY: What outcome does the record of this test show for "Cc1cc(O)c2c(c1)C(=O)c1cc(O)cc(O)c1C2=O" ?
RESULT: 0 (no)

QUERY: What outcome does the record of this test show for "O=C(CCc1ccc(O)cc1)c1c(O)cc(O)cc1O" ?
RESULT: 0 (no)

QUERY: What outcome does the record of this test show for "O=Nc1c(-c2c(O)[nH]c3cc(Br)ccc23)[nH]c2ccccc12" ?
RESULT: 1 (yes)

QUERY: What outcome does the record of this test show for "CCN(CC)C(=S)SSC(=S)N(CC)CC" ?
RESULT: 0 (no)

QUERY: What outcome does the record of this test show for "O=c1c(O)c(-c2cc(O)c(O)c(O)c2)oc2cc(O)cc(O)c12" ?
RESULT: 0 (no)

QUERY: What outcome does the record of this test show for "O=c1c(O)c(-c2ccc(O)cc2O)oc2cc(O)cc(O)c12" ?
RESULT: 0 (no)

QUERY: What outcome does the record of this test show for "Oc1ccc(-c2nc(-c3ccc(F)cc3)c(-c3ccncc3)[nH]2)cc1" ?
RESULT: 0 (no)

QUERY: What outcome does the record of this test show for Cc1c(OCC(F)(F)F)ccnc1CS(=O)c1nc2ccccc2[nH]1 (stereo not drawn) ?
RESULT: 0 (no)

---

Experiment: qHTS of pediatric cancer cell lines to identify multiple opportunities for drug repurposing: Confirmatory screen for control Hh wild type fibroblast cells (AID 1347121); also: nearly all actives have a fitted effect of over 70% in size
Conditions: viability qHTS; series mostly up to 45.9 µM
Records with an inconclusive call do not appear. The source made the active and inactive calls. Calls follow the shape of the dose curve; as a rule, active = well fitted cell-killing curve with a large enough effect; inconclusive = small, poorly fitted or top-dose-only effect, or effect the other way; inactive = flat fitted curve, though single readings scatter.
Just give me one of these, please: active, inactive

QUERY: What outcome does the record of this test show for Nc1ccn([C@@H]2O[C@H](CO)[C@@H](O)C2O)c(=O)n1 (stereo not given in full) ?
RESULT: inactive

QUERY: What outcome does the record of this test show for "CCOc1cc(CC(=O)N[C@@H](CC(C)C)c2ccccc2N2CCCCC2)ccc1C(=O)O" ?
RESULT: inactive

QUERY: What outcome does the record of this test show for "CN(C)c1ccc2nc3ccc(=[N+](C)C)cc-3sc2c1" ?
RESULT: active

QUERY: What outcome does the record of this test show for "Cc1nc(Nc2ncc(C(=O)Nc3c(C)cccc3Cl)s2)cc(N2CCN(CCO)CC2)n1" ?
RESULT: inactive

QUERY: What outcome does the record of this test show for "CCN(CC)C(=S)SSC(=S)N(CC)CC" ?
RESULT: inactive

QUERY: What outcome does the record of this test show for "CC(C)C[C@H](NC(=O)[C@H](Cc1ccccc1)NC(=O)c1cnccn1)B(O)O" ?
RESULT: active

QUERY: What outcome does the record of this test show for Clc1ccc(C(Cn2ccnc2)OCc2ccsc2Cl)c(Cl)c1 (stereo not given) ?
RESULT: inactive

QUERY: What outcome does the record of this test show for "O=C(CCc1ccc(O)cc1)c1c(O)cc(O)cc1O" ?
RESULT: inactive

QUERY: What outcome does the record of this test show for "Nc1nc(Cl)nc2c1ncn2[C@H]1C[C@H](O)[C@@H](CO)O1" ?
RESULT: inactive

QUERY: What outcome does the record of this test show for "Nc1ncn([C@H]2C[C@H](O)[C@@H](CO)O2)c(=O)n1" ?
RESULT: inactive

QUERY: What outcome does the record of this test show for "Cc1c(C(=O)NN2CCCCC2)nn(-c2ccc(Cl)cc2Cl)c1-c1ccc(Cl)cc1" ?
RESULT: inactive

QUERY: What outcome does the record of this test show for "Cc1ccc(NC(=O)c2ccc(CN3CCN(C)CC3)cc2)cc1Nc1nccc(-c2cccnc2)n1" ?
RESULT: inactive

QUERY: What outcome does the record of this test show for O=C1c2c(O)cc(O)cc2OC(c2ccc(O)c(O)c2)C1O (stereo not given) ?
RESULT: inactive

QUERY: What outcome does the record of this test show for "C=C(c1ccc(C(=O)O)cc1)c1cc2c(cc1C)C(C)(C)CCC2(C)C" ?
RESULT: inactive

QUERY: What outcome does the record of this test show for "c1cnc2cc3c(cc2n1)C1CNCC3C1" ?
RESULT: inactive
